These data points were gathered from the METLIN SMRT retention time set (Domingo-Almenara et al. 2019).

test: gradient 5% acetonitrile 3 min, to 50% in 2 min, to 85% in 15 min, held 3 min, 100 µL/min; settings: column: Zorbax Extend-C18 2.1 x 50 mm; eluents: water / acetonitrile, 0.1% formic acid
Give measured RP-LC retention time for each item. Keep answers brief.
Answers are plain numbers, in s.

Example compounds with recorded RP-LC retention time:
>  <compound>
Cc1cc(=O)n(CC(=O)Nc2ccc(Cl)cc2)c(N2CCC(C)CC2)n1

>  <units>
s

>  <RP-LC retention time>
758

$$$$
>  <compound>
CC(NC(=O)Cc1nnc(-c2cnccn2)o1)c1ccc(F)cc1 (stereo not given)

>  <units>
s

>  <RP-LC retention time>
681

$$$$
>  <compound>
Cc1c(C)n(C(=O)CN2CCC(C(N)=O)CC2)c2ccccc12

>  <units>
s

>  <RP-LC retention time>
614

$$$$

Hi! Can you tell me RP-LC retention time for each of these compounds?
1. Cc1cc(=O)n(CC(=O)NCCC2=CCCCC2)c(N2CCCCC2)n1
2. COc1ccc(-c2noc(C3CCCN3C(=O)Nc3ccc(F)c(Cl)c3)n2)cc1 (stereo not given)

Return:
1: 734; 2: 1030

----------
assay: gradient 5% acetonitrile 3 min, to 50% in 2 min, to 85% in 15 min, held 3 min, 100 µL/min; conditions: column: Zorbax Extend-C18 2.1 x 50 mm; eluents: water / acetonitrile, 0.1% formic acid
metricName: RP-LC retention time

Example compounds with recorded RP-LC retention time:
>  <compound>
COc1cccc(N2CCN(c3nc(C(=O)NCCN4CCOCC4)cs3)CC2)c1

>  <valueObserved>
667 s

$$$$
>  <compound>
Nc1nnc(SCc2nnc(-c3ccc4c(c3)OCO4)o2)s1

>  <valueObserved>
630 s

$$$$
>  <compound>
O=C(COc1ccccc1F)NC1CCCCC1N1C(=O)CSC1=O (centres undefined)

>  <valueObserved>
768 s

$$$$
>  <compound>
Cc1ccc2c(c1)N(Cc1ccccc1F)N=C(C(=O)N1CCC(C)CC1)S2(=O)=O

>  <valueObserved>
1090 s

$$$$
>  <compound>
Cc1ccc(C)c(-c2nc(-c3cccc(-c4ccnn4C)c3)no2)c1

>  <valueObserved>
1110 s

$$$$

Hi! Can you tell me RP-LC retention time for each of these compounds?
1. CS(=O)(=O)N1CCCc2cc(C(=O)N3CCOCC3)ccc21
2. O=C(Nc1c(C(=O)N2CCN(c3ccccn3)CC2)oc2ccccc12)c1cccc([N+](=O)[O-])c1
3. Cc1ccc2oc(-c3noc(C(=O)NCCN4CCC(C)CC4)n3)c(C)c2c1

Return:
1: 654 s; 2: 744 s; 3: 759 s

Hi! Can you tell me RP-LC retention time for each of these compounds?
1. CCCCCN1CC(=O)N(c2ccc(OC)cc2)[C@@H]2CS(=O)(=O)C[C@@H]21
2. O=C(Nc1c(-c2ccc(F)cc2)nc2ccccn12)c1ccc(Cl)c([N+](=O)[O-])c1
3. Cc1cc(C(=O)N2C[C@@H](C)[C@H](c3nc(-c4ccncc4)no3)C2)n[nH]1

Return:
1. 708 s
2. 733 s
3. 619 s

Hi! Can you tell me RP-LC retention time for each of these compounds?
1. O=C(Cn1nc2c(cc1=O)CCCC2)Nc1cccc(N2CCCCS2(=O)=O)c1
2. Cc1cc(OCC(=O)N2CCCC2)nc(-c2ccc(Cl)cc2)n1
3. COc1ccc(-c2noc(-c3nn(-c4ccc(OC)cc4)ccc3=O)n2)cc1
4. O=C(NCCSC12CC3CC(CC(C3)C1)C2)c1ccc(CN2C(=O)CCn3nccc32)cc1
5. CNC(=O)C1Cc2ccccc2CN1S(=O)(=O)c1ccc(OC)cc1 (centres undefined)
6. Cc1oc(C2CCN(C(=O)c3cc(F)ccc3F)CC2)nc1C(=O)N1CCCC1
7. Cc1cc(NS(=O)(=O)c2cn(C(C)C)c3ncccc23)ccc1F
8. Cc1cc2[nH]c(C(=O)Nc3c(F)cccc3F)c(CN3CCOCC3)c2s1

Return:
["715 s", "937 s", "827 s", "645 s", "770 s", "769 s", "948 s", "675 s"]
